// data source = patent US20240425587A1

System Under Test: T1, human PILRA, c-term His-Avi tag (human, UniProt Q9UKJ1 20-197, limits assumed)
T1 construct: not shown: C-terminal His-Avi tag
T1 sequence (Q9UKJ1 20-197 limits assumed): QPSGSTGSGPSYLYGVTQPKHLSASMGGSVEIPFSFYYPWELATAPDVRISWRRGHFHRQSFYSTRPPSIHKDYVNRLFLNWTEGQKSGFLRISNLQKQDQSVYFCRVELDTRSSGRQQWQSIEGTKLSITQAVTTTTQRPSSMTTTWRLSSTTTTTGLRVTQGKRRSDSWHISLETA
Protocol Description: SPR (Biacore), antibody captured, PILRA as analyte
Define the label as yes (1) when kon is strictly less than 30000 M⁻¹ s⁻¹ and as no (0) in all remaining cases.

Previously resolved entries follow.
1) E12 (antibody, V domains shown, B-cell cloning campaign (mice)) VH: QVQLQQSGAELAKPGASVKLSCKASGYTFTSYWIHWVKQRPGQGLEWIGYINPSSGDTEYNQKFKDKATLTADKSSNTAYMQLSSLTYEDSAVYYCARSAPDDGYYDYAMDYWGQGTSVTVSS VL: DIVMTQSRKFMSTSVGDRVSVTCKASQNVGSNVAWYQQKPGQSPKGLTYSASYRYSGVPDRFTGSGSGTDFTLTISNVQSEDLAEYFCQQYNSYPYTFGGGTKLEIK
yes (1)
2) A4 (antibody, V domains shown, phage campaign) VH: QVQLVQSGAEVKKPGSSVKVSCKASGYTFTGYAVNWVRQAPGQGLEWMGGIIPIFGTANYAQKFQGRVTITADESTSTAYMELSSLRSEDTAVYYCARNLGYSSGWSGYYYGMDVWGQGTMVTVSS VL: EIVMTQSPATLSVSPGERATLSCRASQSVSSNYLAWYQQKPGQAPRLLIYGASTRATGIPARFSGSGSGTEFTLTISSLQSEDFAVYYCQQYGSSSFTFGPGTKLEIK
no (0)
3) B4 (antibody, V domains shown, B-cell cloning campaign (mice)) VH: EVKLVESGGGLVKPGGSLKLSCTASGFTFSNYAMSWVRQTPEKRLEWVASISGGGSTYYPDSVKGRFTIAIDYARNILYLQMSSLRSEDTAIYYCTRGVSYGDYAMDYWGQGTSVTVSS VL: ETTVTQSPASLSMAIGEKVTIRCVTSTDIDDDMNWYQQKPGGPPKLLISEGNTLRPGVPSRFSSSGYGSDFVFTIEDMLSEDVADYYCLQSDNLPLTFGAGTKVELK
yes (1)
4) A3 (antibody, V domains shown, phage campaign) VH: EVQLLESGGGLVQPGGSLRLSCAASGFTFSRYEMNWVRQAPGKGLEWVAGISYDGSYEYYADSVKGRFTISRDNSKNTLYLQMNSLRAEDTAVYYCAKGSYGYDAFDIWGQGTMVTVSS VL: DIQMTQSPSSLSASVGDRVTITCRASQSISSWLAWYQQKPGKAPKLLIYATSTLQSGVPSRFSGSGSGTDFTLTISSLQPEDFATYYCQQSYSPPYTFGQGTKVEIK
no (0)

Q. Determine whether this binder shows kon lower than 30000 M⁻¹ s⁻¹ (ties excluded): A2 (antibody, V domains shown, phage campaign) VH: EVQLLESGGGLVKPGGSLRLSCAASGFTFSDYYMSWVRQAPGKGLEWVSSISIGGGGTYYADSVKGRFTISRDDSKNTLYLQMNSLRAEDTAVYYCASHGFGARKMDFWGQGTTVTVSS VL: DIQMTQSPSSLSASVGDRVTITCRASQSIRSYVNWYQQKPGKAPKLLIYDASNLETGVPSRFSGSGSGTDFTLTISSLQPEDFATYYCQQSYSPPITFGQGTKVEIK
A. no (0)
